# TEST_SYSTEM: T1, AFP158/HLA-A*02:01 complex (human)
# T1 construct: biotinylated on the BSP by BirA for ELISA and panning; also called biotinylated AFP158/HLA-A*02:01 complex; Bio-AFP158
# PROCEDURE_DETAILS: SPR, scFv-mIgG2aFc from supernatant captured, complex as analyte
READOUT_TYPE: koff (s⁻¹)
Quick note: give the figure in s⁻¹, leave out the unit.

query: Fill in koff for record AS179723 VL1g1VH1g1 scFv-mIgG2aFc (Fc fusion, not shown: a dimerising Fc or GST) scFv: QSVLTQPPSASGTPGQRVTISCSGSSNNIGGNYVNWYQQLPGTAPKLLIYDNKNRPSGVPDRFSGSKSGTSASLAISGLQSEDEADYYCASWDDSLSAVVFGGGTKLTVLGGGGSGGGGSGGGGSEVQLVESGGGLVQPGGSLRLSCAASGFTFLNYAMSWVRQAPGKGLEWVSSNSGAGSTYYADSVKGRFTISRDNSKNTLYLQMNSLRAEDTAVYYCAKGTNVGSWSSLHYWGQGTLVTVSS
result: 0.029
